Tested on: HEK293
MEASUREMENT DESCRIPTION: maximal inhibition of ZIKV NS1 production (% inhibition); higher = stronger antiviral effect
READOUT LABEL: maximal inhibition
Please state the value as a number alone, without comment.

# COMPOUND, VALUE REPORTED
measured = [
    ("NC1(c2ccc(-c3nc4ccn5c(=O)[nH]nc5c4cc3-c3ccccc3)cc2)CCC1", 103),
    ("CC1=C(O)C(=O)C=C2C1=CC=C1[C@@]2(C)CC[C@@]2(C)[C@@H]3C[C@](C)(C(=O)O)CC[C@]3(C)CC[C@]12C", 106),
    ("O=C(NC1CCNCC1)c1n[nH]cc1NC(=O)c1c(Cl)cccc1Cl", 91),
]

Using the record for C=C1C(=O)[C@]23[C@H](O)[C@H]1CC[C@H]2[C@@]12CO[C@]3(O)[C@@H](O)[C@@H]1C(C)(C)CC[C@@H]2O , report its maximal inhibition. 108

Using the record for Cc1ccc([N+](=O)[O-])[c]2c1[O][Hg]2 , report its maximal inhibition. 107

Using the record for CC1(C(=O)O)C2CCC(O2)C1(C)C(=O)O (stereo not drawn) , report its maximal inhibition. 105

Using the record for CC1=CC(=O)c2ccccc2C1=O , report its maximal inhibition. 101

Using the record for NC(=O)Nc1cc(-c2cccc(F)c2)sc1C(=O)N[C@H]1CCCNC1 , report its maximal inhibition. 99

====

Tested on: HEK293
MEASUREMENT DESCRIPTION: maximal inhibition of ZIKV NS1 production (% inhibition); higher = stronger antiviral effect
READOUT LABEL: maximal inhibition
Please state the value as a number alone, without comment.

Before answering, review these 2 worked examples.
# SMILES CODE, VALUE REPORTED
rows = [
    ("Cn1c(=O)n(-c2ccc(C(C)(C)C#N)cc2)c2c3cc(-c4cnc5ccccc5c4)ccc3ncc21", 82),
    ("Cn1cc(-c2[nH]c3cc(NC(=O)[C@H](N)C4CCCCC4)cc4c3c2C=NNC4=O)cn1", 104),
]

Attention now turns to another entry.
Using the record for CCCOc1ccc2[nH]c(NC(=O)OC)nc2c1 , report its maximal inhibition. 67

====

System: HEK293
MEASUREMENT DESCRIPTION: maximal inhibition of ZIKV NS1 production (% inhibition); higher = stronger antiviral effect
READOUT LABEL: maximal inhibition
Please state the value as a number alone, without comment.

Using the record for CC[C@H]1CN2CCc3cc(OC)c(OC)cc3[C@@H]2C[C@@H]1C[C@H]1NCCc2cc(OC)c(OC)cc21 , report its maximal inhibition. 103

Using the record for O=c1[nH]c(=O)n([C@H]2C[C@H](O)[C@@H](CO)O2)cc1F , report its maximal inhibition. 98

Using the record for CC[C@@H]1C(=O)N(C)c2cnc(Nc3ccc(C(=O)N[C@H]4CC[C@H](N5CCN(CC6CC6)CC5)CC4)cc3OC)nc2N1C(C)C , report its maximal inhibition. 101

Using the record for Nc1nc(Cl)nc2c1ncn2[C@@H]1O[C@H](CO)[C@@H](O)[C@@H]1F , report its maximal inhibition. 94

Using the record for C[C@@H]1O[C@@H](O[C@H]2C[C@@H](O)[C@]3(CO)[C@H]4[C@H](O)C[C@]5(C)[C@@H]([C@@H]6COC(=O)C6)CC[C@]5(O)[C@@H]4CC[C@]3(O)C2)[C@H](O)[C@H](O)[C@H]1O , report its maximal inhibition. 103

Using the record for COc1cccc2c1C(=O)c1c(O)c3c(c(O)c1C2=O)C[C@@](O)(C(C)=O)C[C@@H]3O[C@H]1C[C@H](N)[C@H](O)[C@H](C)O1 , report its maximal inhibition. 66

Using the record for O=C1CCc2ccc(OCCCCN3CCN(c4cccc(Cl)c4Cl)CC3)cc2N1 , report its maximal inhibition. 102

Using the record for Cc1ncc(-c2ccnc(Nc3ccc(S(C)(=O)=O)cc3)n2)n1C(C)C , report its maximal inhibition. 99

====

Test system: HEK293
MEASUREMENT DESCRIPTION: maximal inhibition of ZIKV NS1 production (% inhibition); higher = stronger antiviral effect
Classify as follows. Reported maximal inhibition greater than or equal to 100: label 1. Reported maximal inhibition below: label 0.

Solved cases (3 shown):
# SMILES CODE, MEASURED ON, CATEGORY
data = [
    ("O=C(Nc1ncc(-c2cc(C(F)F)nn2-c2c(Cl)cccc2Cl)s1)C1CC1", "HEK293", "label 0"),
    ("O=C1/C(=C/c2ccccc2)C[C@@]2(O)[C@H]3Cc4ccc(O)c5c4[C@@]2(CCN3CC2CC2)[C@H]1O5", "HEK293", "label 1"),
    ("C=C1C(=O)O[C@H]2[C@H]1CC/C(C)=C/CC[C@@]1(C)O[C@@H]21", "HEK293", "label 1"),
]

API: above_or_equal(metric=maximal inhibition, cutoff=100) for item COc1ccc(-c2cc3c(C)nc(N)nc3n([C@H]3CC[C@H](OCCO)CC3)c2=O)cn1 label 0

API: above_or_equal(metric=maximal inhibition, cutoff=100) for item CC(C)C[C@H](NC(=O)[C@@H](NC(=O)c1cccc(-c2ccccc2)n1)[C@@H](C)O)B(O)O label 0

API: above_or_equal(metric=maximal inhibition, cutoff=100) for item Cc1ccc(NC(=O)c2ccc(CN3CCN(C)CC3)cc2)cc1Nc1nccc(-c2cccnc2)n1 label 0

API: above_or_equal(metric=maximal inhibition, cutoff=100) for item COc1cc2nc(N3CCN(C(=O)c4ccco4)CC3)nc(N)c2cc1OC label 1

API: above_or_equal(metric=maximal inhibition, cutoff=100) for item Oc1c(Cl)cc(Cl)c2cccnc12 label 0

API: above_or_equal(metric=maximal inhibition, cutoff=100) for item Cc1cc(Nc2cc(N3CCN(C)CC3)nc(Sc3ccc(NC(=O)C4CC4)cc3)n2)n[nH]1 label 1

API: above_or_equal(metric=maximal inhibition, cutoff=100) for item COc1cc([C@@H]2c3cc4c(cc3[C@H](O)[C@H]3COC(=O)[C@@H]23)OCO4)cc(OC)c1OC label 0

API: above_or_equal(metric=maximal inhibition, cutoff=100) for item C[C@H]1O[C@@H](O[C@H]2[C@@H](O)C[C@H](O[C@H]3[C@@H](O)C[C@H](O[C@H]4CC[C@@]5(C)[C@H](CC[C@@H]6[C@@H]5C[C@@H](O)[C@]5(C)[C@@H](C7=CC(=O)OC7)CC[C@]65O)C4)O[C@@H]3C)O[C@@H]2C)C[C@H](O)[C@@H]1O label 1

====

Test system: HEK293
MEASUREMENT DESCRIPTION: cytotoxicity IC50 (ATP content, uninfected cells); higher = less cytotoxic
CONDITION PARAMETERS: infection: none
Known cytotoxicity IC50 of a selection of compounds
Value expressed in µM; do not type the unit.

# COMPOUND, cytotoxicity IC50 / µM
measured = [
    ("CO[C@@H]1[C@@H](OC)[C@H](C)[C@@](O)(CC(=O)O)O[C@H]1[C@H](C)[C@H]1O[C@@]2(CC[C@@](C)([C@H]3CC[C@@](C)([C@@H]4O[C@@H]([C@H]5O[C@](C)(O)[C@H](C)C[C@@H]5C)C[C@@H]4O[C@@H]4C[C@H](OC)[C@@H](OC)[C@H](C)O4)O3)O2)C[C@H](O)[C@H]1C", 1.5),
]

Using the record for Oc1c(Cl)cc(Cl)c2cccnc12 , report its cytotoxicity IC50. 16

Using the record for O=C1NCCN1CCN1CCC(c2cn(-c3ccc(F)cc3)c3ccc(Cl)cc23)CC1 , report its cytotoxicity IC50. 6.5

Using the record for Cc1cc(C2CCCCC2)n(O)c(=O)c1 , report its cytotoxicity IC50. 20

Using the record for CC(C)C[C@H](NC(=O)CNC(=O)c1cc(Cl)ccc1Cl)B(O)O , report its cytotoxicity IC50. 2.1

Using the record for CC(=O)OC[C@H]1O[C@@H]([S-])[C@H](OC(C)=O)[C@@H](OC(C)=O)[C@@H]1OC(C)=O.CCP(CC)CC.[Au+] , report its cytotoxicity IC50. 3

Using the record for O=C1c2c(O)ccc(O)c2C(=O)c2c(NCCNCCO)ccc(NCCNCCO)c21 , report its cytotoxicity IC50. 50

Using the record for NC1(c2ccc(-c3nc4ccn5c(=O)[nH]nc5c4cc3-c3ccccc3)cc2)CCC1 , report its cytotoxicity IC50. 4.4

Using the record for CC1=CC(=O)c2ccccc2C1=O , report its cytotoxicity IC50. 45

====

Tested on: HEK293
MEASUREMENT DESCRIPTION: maximal inhibition of ZIKV NS1 production (% inhibition); higher = stronger antiviral effect
Known maximal inhibition of a selection of molecules
Please state the value as a number alone, without comment.

# SMILES CODE, MEASURED ON, maximal inhibition
rows = [
    ("O=C1c2ccccc2-[n+]2ccc3c([nH]c4ccccc43)c21", "HEK293", 86),
]

Attention now turns to another entry.
Using the record for CC1=C(CO)C(=O)O[C@@H]([C@@H](C)[C@H]2CC[C@H]3[C@@H]4C[C@H]5O[C@]56[C@@H](O)C=CC(=O)[C@]6(C)[C@H]4CC[C@]23C)C1 , report its maximal inhibition. 102

src = the supplement of paper PMC8498969
